z-score of subpopulation abundance values for the compounds below.
tested on: Saccharomyces cerevisiae BY4741 SeMeCo community; experiment: z-score of subpopulation abundance vs DMSO median, subpopulation auxotrophic for LUM; higher = larger share of this subpopulation than in DMSO controls; settings: 10 µM; 24 h; SM minimal medium; subpopulation (auxotrophy): LUM
Counter-ions that a name gives are not always drawn.
Response field accepts a number only; no unit should be typed.

Some entries whose results are on file:
>  <Compound>
COc1ccc(CNc2nc(N3CCC[C@H]3CO)ncc2C(=O)NCc2ncccn2)cc1Cl

>  <z-score of subpopulation abundance>
-0.38

$$$$
>  <Compound>
CCCc1cc(C(N)=S)ccn1 [Protionamide]

>  <z-score of subpopulation abundance>
-0.28

$$$$
>  <Compound>
COC(=O)C1=C(C)NC(C)=C(C(=O)OCCN2CCN(C(c3ccccc3)c3ccccc3)CC2)C1c1cccc([N+](=O)[O-])c1 (stereo not drawn) [Manidipine 2HCl]

>  <z-score of subpopulation abundance>
0.89

$$$$
>  <Compound>
Clc1ccc(CCC(Cn2ccnc2)Sc2c(Cl)cccc2Cl)cc1 (stereo not drawn) [Butoconazole nitrate]

>  <z-score of subpopulation abundance>
0.2

$$$$
>  <Compound>
CC[C@H](C)C(=O)O[C@H]1CCC=C2C=C[C@H](C)[C@H](CC[C@@H]3C[C@@H](O)CC(=O)O3)[C@H]21

>  <z-score of subpopulation abundance>
-0.11

$$$$
>  <Compound>
CC(=O)[C@H]1CC[C@H]2[C@@H]3CCC4=CC(=O)CC[C@]4(C)[C@H]3CC[C@]12C

>  <z-score of subpopulation abundance>
-0.61

$$$$
>  <Compound>
Nc1nc2c(ncn2COC(CO)CO)c(=O)[nH]1

>  <z-score of subpopulation abundance>
-0.04

$$$$
>  <Compound>
CC(=O)O[C@H]1C[C@@]2(C)[C@@H](C[C@@H](O)[C@H]3[C@@]4(C)CC[C@@H](O)[C@@H](C)[C@@H]4CC[C@@]32C)/C1=C(\CCC=C(C)C)C(=O)O [Fusidate Sodium]

>  <z-score of subpopulation abundance>
-0.25

$$$$
>  <Compound>
C=CC(C)(O)CCC=C(C)C (stereo not drawn)

>  <z-score of subpopulation abundance>
-0.39

$$$$
>  <Compound>
CNS(=O)(=O)CCc1ccc2[nH]cc(C3CCN(C)CC3)c2c1 [Naratriptan HCl]

>  <z-score of subpopulation abundance>
-0.24

$$$$

Provide one value: measured z-score of subpopulation abundance of CNCC[C@@H](Oc1ccccc1C)c1ccccc1 [Atomoxetine HCl]
0.05

Provide one value: measured z-score of subpopulation abundance of CC1=CC[C@@](O)(C(C)C)CC1
0.2

Provide one value: measured z-score of subpopulation abundance of CCCCCCCCc1ccc(CCC(N)(CO)CO)cc1
-1.47

Provide one value: measured z-score of subpopulation abundance of Nc1nc(N)nc(-c2cc(Cl)ccc2Cl)n1
-0.45

Origin of the recorded values: the supplement of paper PMC8975748
